- Tested on: rats (Sprague-Dawley, male)
- test-context: rat, in vivo
endpoint-name: Significant Reversal of Edema

* CN1C(=O)CN=C(c2ccccc2)c2cc(Cl)ccc21 [Diazepam] | No
* NCC1(CC(=O)O)CCCCC1 [Gabapentin, gabapentin] | No
* CN1CC[C@]23c4c5ccc(O)c4O[C@H]2[C@@H](O)C=C[C@H]3[C@H]1C5 [Morphine, morphine] | No
* CNCC[C@H](Oc1cccc2ccccc12)c1cccs1 [Duloxetine, duloxetine] | No
* Cc1cccc(C)c1OCC(C)N (stereo not drawn) [Mexiletine, mexiletine] | Yes
* COc1ccc2cc([C@H](C)C(=O)O)ccc2c1 [Naproxen, naproxen] | No
